System Under Test: T1, human monomeric EGFR (EGFR.mmh) (human, UniProt P00533 25-647)
T1 construct: Soluble monomeric EGFR construct
Assay Overview: SPR 37C, mAb captured by anti-human Fc, EGFR.mmh analyte
Some binders, each annotated with its measured Kd.
Express the result in nM but write the number alone.

INSERT INTO measurements (binder, result_number) VALUES
  ('H1H086N (antibody, human IgG1, V domains shown, Tested in human IgG1 Fc format (H1H); also called H1M086N) VH: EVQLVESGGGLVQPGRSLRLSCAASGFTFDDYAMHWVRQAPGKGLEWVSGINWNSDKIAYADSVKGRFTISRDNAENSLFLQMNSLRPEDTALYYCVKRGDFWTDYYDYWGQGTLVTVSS VL: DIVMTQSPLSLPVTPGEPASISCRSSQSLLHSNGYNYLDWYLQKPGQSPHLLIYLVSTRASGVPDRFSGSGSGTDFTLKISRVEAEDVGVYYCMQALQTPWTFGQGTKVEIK', 1.31),
  ('H1H089N (antibody, human IgG1, V domains shown, Tested in human IgG1 Fc format (H1H); also called H1M089N) VH: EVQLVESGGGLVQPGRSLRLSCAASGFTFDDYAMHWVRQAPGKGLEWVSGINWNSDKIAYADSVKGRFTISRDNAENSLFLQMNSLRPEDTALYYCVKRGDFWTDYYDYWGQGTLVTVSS VL: DIVMTQSPLSLPVTPGEPASISCRSSQSLLHSNGHNYLDWYLQKPGQSPHLLIYLVSNRASGVPDRFSGSGSGTDFTLKISRVEAEDVGVYYCIQALQTPWTFGQGTKVEIK', 21.8);

Turning now to a further record.
Request: For the binder H1H147P (antibody, human IgG1, V domains shown, Human IgG1 Fc (H1H)) VH: EVQLVESGPGLVQPSQTLSLTCTVSGGSINSGDFYWSWIRQHPGKGLEWIGHIYYSGITYYSPSLKSRLTISVDTSKNQFSLKLSSVTAADTAVYYCARKRVTGEVDYWGQGTLVTVSS VL: DIQMTQSPSSLSASVGDRITITCQANQDINNYLNWYQQKPGKAPKLLISDASNLETGVPSRFSGSGSGTDFTFTISSLQPEDIATYYCQQYDNLPPTFGQGTRLEIKR , what Kd is on record?
Response: 5.76
